Where do the numbers come from? From paper PMC7385938.

# testedTarget: HSPA5-FL (Homo sapiens, UniProt P11021)
# Sequence (P11021 25-654): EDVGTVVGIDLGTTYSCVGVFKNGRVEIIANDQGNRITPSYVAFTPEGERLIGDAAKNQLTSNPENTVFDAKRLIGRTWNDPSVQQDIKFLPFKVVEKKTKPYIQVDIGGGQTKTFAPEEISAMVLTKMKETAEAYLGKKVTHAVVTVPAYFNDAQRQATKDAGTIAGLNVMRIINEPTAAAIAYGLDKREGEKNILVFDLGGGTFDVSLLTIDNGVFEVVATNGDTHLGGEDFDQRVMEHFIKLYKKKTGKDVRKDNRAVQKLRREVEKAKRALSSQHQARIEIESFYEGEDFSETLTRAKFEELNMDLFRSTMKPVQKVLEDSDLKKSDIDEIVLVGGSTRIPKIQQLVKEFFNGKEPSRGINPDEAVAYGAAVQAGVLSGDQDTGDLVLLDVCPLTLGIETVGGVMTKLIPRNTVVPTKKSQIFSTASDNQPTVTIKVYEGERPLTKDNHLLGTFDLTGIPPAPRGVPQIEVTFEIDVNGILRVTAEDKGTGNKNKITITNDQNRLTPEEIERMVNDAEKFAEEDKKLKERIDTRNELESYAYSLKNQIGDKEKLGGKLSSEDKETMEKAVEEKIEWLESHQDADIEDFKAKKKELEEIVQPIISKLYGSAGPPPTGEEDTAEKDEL
measurementKind: Kd (µM)
Give bare numbers, in µM.

>  <compound>
CCCCCCCC/C=C\CCCCCCCC(=O)O[C@H](COC(=O)CCCCCCCCCCCCCCC)COP(=O)(O)OC[C@H](N)C(=O)O [POPS]

>  <testedTarget>
HSPA5-FL (Homo sapiens, UniProt P11021)

>  <Kd, µM>
3.5

$$$$

Could you now look at the following compound, please?
Ask | Suppose we examine the compound CCCCCCCCCCCCCC(=O)OC[C@H](COP(=O)(O)OCC(O)COP(=O)(O)OC[C@@H](COC(=O)CCCCCCCCCCCCC)OC(=O)CCCCCCCCCCCCC)OC(=O)CCCCCCCCCCCCC (some centres unmarked) [CL] ; what Kd value has been reported?
Reply | 1.6
